For each of the binders below, state its glycan array binding signal (z-score).
molecular target: Neu5Ac(a2-3)[GalNAc(b1-4)]Gal(b1-4)GlcNAc; assay: glycan array binding signal (z-score within array); higher = stronger binding; conditions: glycan notation: IUPAC condensed, linker removed
The full list was thinned out, with the strongest signals kept by preference.

Please give measured glycan array binding signal (z-score) of the following entry: Erv46-EDTA (Saccharomyces cerevisiae), P39727 (protein) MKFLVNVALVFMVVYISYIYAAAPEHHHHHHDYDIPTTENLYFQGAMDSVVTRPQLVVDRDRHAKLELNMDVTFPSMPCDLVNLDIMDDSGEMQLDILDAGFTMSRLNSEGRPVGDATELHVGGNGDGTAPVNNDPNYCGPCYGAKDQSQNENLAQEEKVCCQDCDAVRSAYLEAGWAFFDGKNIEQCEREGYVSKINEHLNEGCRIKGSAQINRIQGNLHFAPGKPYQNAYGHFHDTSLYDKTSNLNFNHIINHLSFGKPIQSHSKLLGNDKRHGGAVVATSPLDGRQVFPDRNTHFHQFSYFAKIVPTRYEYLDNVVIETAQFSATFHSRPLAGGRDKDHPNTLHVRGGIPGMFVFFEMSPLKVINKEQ
0.122

Please give measured glycan array binding signal (z-score) of the following entry: CLECb-Precomplexed (Mus musculus), P43025 (protein) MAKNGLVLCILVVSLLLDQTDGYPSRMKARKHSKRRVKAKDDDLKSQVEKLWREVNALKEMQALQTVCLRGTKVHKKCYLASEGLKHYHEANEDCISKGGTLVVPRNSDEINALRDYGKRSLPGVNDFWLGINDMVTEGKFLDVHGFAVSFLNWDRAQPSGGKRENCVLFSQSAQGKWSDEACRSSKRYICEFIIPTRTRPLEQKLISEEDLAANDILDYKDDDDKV
-0.321

Please give measured glycan array binding signal (z-score) of the following entry: CML1 (Coprinopsis cinerea) (protein) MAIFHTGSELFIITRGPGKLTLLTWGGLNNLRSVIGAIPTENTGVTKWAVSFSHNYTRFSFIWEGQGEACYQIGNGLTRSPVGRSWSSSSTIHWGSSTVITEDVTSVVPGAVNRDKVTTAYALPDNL
-0.353
